Tested on: OVCAR-3 ovarian
procedureSummary: NCI tumour cell line growth inhibition, 48 h
parameterMeasured: GI50

{"compound": "NNc1c2ccccc2nc2ccccc12", "val": "5.85 µM"}

Request: Look at this compound and give its reported GI50. COc1cc(OC)cc(-c2n/c(=C\c3c(O)[nH]c4ccc(Cl)cc34)cc3c2=Nc2ccccc2-3)c1
Result: 2.46 µM

Request: Item under review: CCC[CH2][Sn]([CH2]CCC)([O]C(=O)/C=C/c1ccccc1F)[O]C(=O)/C=C/c1ccccc1F . Reported GI50?
Result: 1.07 µM

====

Tested on: SF-539 CNS
procedureSummary: NCI tumour cell line growth inhibition, 48 h; in the data active = GI50 below about 0.43 µM; inactive = the rest
Just give me one of these, please: Y for active, N for inactive

{"compound": "COc1cccc(C2C(C#N)=C(N)Oc3c2ccc2ccccc32)c1 (configuration not stated)", "group": "Y"}
{"compound": "OCc1ccc(N2CCCC2)cc1Cl", "group": "N"}
{"compound": "CN1CCN(c2cc3nc4ccccc4n(-c4ccc(Cl)cc4)c-3cc2=N)CC1", "group": "N"}
{"compound": "O=c1c(-c2ccccc2)coc2cc(OC/C(=N/O)c3ccc(F)cc3)ccc12", "group": "N"}
{"compound": "O=C1/C(=C/c2cccc(Br)c2)COc2ccc(O)c(O)c21", "group": "N"}

Request: # fetch the recorded call for COc1cc(OC)cc(-c2n/c(=C\c3c(O)[nH]c4ccc(Cl)cc34)cc3c2=Nc2ccccc2-3)c1 here
Result: N

Request: Please indicate how the test categorized Nc1n[nH]c(N)c1N=Nc1ccc(O)cc1 .
Result: N

Request: How was CCN(CC)CCCC(C)Nc1c(-c2ccccc2)cnc2cc(Cl)ccc12 (configuration not stated) classified in this test?
Result: N

Request: Hi team, can someone confirm the assay call for COc1ccc2c(c1)/C(=C\c1c[nH]c3ccc(OC)cc13)C(=O)N2 ?
Result: N

Request: Could you check what this test reported for O=C1CSC(c2ccccc2O)N1c1nnc(Cn2ccnc2)o1 (configuration not stated) ?
Result: N
